In this section we review reported GI50 values for a set of molecules.
- Test system: VCaP cells
- Assay comment: Cellular growth inhibition assay for VCaP cells (CellTiter-Glo 2.0, 72 hours)
- Type: cell-based, human
- Test conditions: 72 hours, CellTiter-Glo 2.0

The following molecules have reported results that may help.
{"Molecule": "COCC[C@@H]1N=C(c2ccc(C#CC3CC4(C3)CN(c3ccc(C(=O)NC5CCC(Oc6ccc(C#N)c(OC)c6)CC5)nn3)C4)cc2)c2c(sc(C)c2C)-n2c(C)nnc21 (some centres unmarked) [Compound I-30]", "GI50": "< 500 nM"}
{"Molecule": "COc1cc(O[C@H]2CC[C@H](NC(=O)c3ccc(N4CCC5(CCN(c6ccc(C7=NC(Cc8ncco8)c8nnc(C)n8-c8sc(C)c(C)c87)cc6C(F)(F)F)CC5)C4)nn3)CC2)ccc1C#N (some centres unmarked) [Compound I-129]", "GI50": "< 500 nM"}
{"Molecule": "COc1cc(O[C@H]2CC[C@H](NC(=O)c3ccc(N4CCC5(CCC(c6ccc(C7=N[C@@H](Cc8ncco8)c8nnc(C)n8-c8sc(C)c(C)c87)cc6)CC5)C4)nn3)CC2)ccc1C#N (some centres unmarked) [Compound I-101]", "GI50": "< 500 nM"}
{"Molecule": "COc1cc(O[C@H]2CC[C@H](NC(=O)c3ccc(N4CCC5(CCC(c6ccc(C7=N[C@@H](C)c8nnc(C)n8-c8sc(C)c(C)c87)cc6)CC5)C4)nn3)CC2)ccc1C#N (some centres unmarked) [Compound I-20]", "GI50": "< 500 nM"}

Could you now consider this next molecule?
Just so you know, measured GI50 for CC[C@@H]1N=C(c2ccc(C3CCC4(CC3)CCN(c3ccc(C(=O)NC5CCC(Oc6ccc(C#N)c(OC(F)(F)F)c6)CC5)nn3)C4)cc2)c2c(sc(C)c2C)-n2c(C)nnc21 (some centres unmarked) [Compound I-13] came out at < 500 nM
